# CONDITION LABEL: in water, 303.15 K
MEASURED PARAMETER: solubility (mole fraction)
Answers are plain numbers.

Query block: Need solubility (mole fraction) of `CC(C)C[C@H](N)C(=O)O` , thanks.
Result block: 0.00348

* * *

# CONDITION LABEL: in 1,4-dioxane, 298.15 K
MEASURED PARAMETER: solubility (mole fraction)
Give bare numbers.

Query block: Returns the measured solubility (mole fraction) for the input compound. Input: `CC(C)C[C@H](N)C(=O)O`
Result block: 7.25e-05

* * *

# CONDITION LABEL: in isobutanol, 308.15 K
MEASURED PARAMETER: solubility (mole fraction)
Give bare numbers.

Query block: State the recorded solubility (mole fraction) for this entry: `CC(C)C[C@H](N)C(=O)O`
Result block: 0.000228

* * *

# CONDITION LABEL: in isopropanol, 323.15 K
MEASURED PARAMETER: solubility (mole fraction)
Give bare numbers.

Query block: May I ask what solubility (mole fraction) has been recorded for `CC(C)C[C@H](N)C(=O)O` ?
Result block: 0.000368

* * *

# CONDITION LABEL: in ethyl acetate, 298.15 K
MEASURED PARAMETER: solubility (mole fraction)

Query block: Request the reported solubility (mole fraction) associated with `CC(C)C[C@H](N)C(=O)O`
Result block: 0.000222

* * *

# CONDITION LABEL: in isopropanol, 318.15 K
MEASURED PARAMETER: solubility (mole fraction)
Numbers only.

Query block: What does the record list as solubility (mole fraction) for `CC(C)C[C@H](N)C(=O)O` ?
Result block: 0.000318

* * *

# CONDITION LABEL: in ethyl acetate, 318.15 K
MEASURED PARAMETER: solubility (mole fraction)

Query block: Which solubility (mole fraction) reading was recorded for the compound `CC(C)C[C@H](N)C(=O)O` ?
Result block: 0.000396

* * *

# CONDITION LABEL: in acetone, 313.15 K
MEASURED PARAMETER: solubility (mole fraction)
Give bare numbers.

Query block: Fill in the blank: the reported solubility (mole fraction) of `CC(C)C[C@H](N)C(=O)O` is ____.
Result block: 0.000179

* * *

# CONDITION LABEL: in methyl acetate, 323.15 K
MEASURED PARAMETER: solubility (mole fraction)
Answers are plain numbers.

Query block: Requested read-out: solubility (mole fraction). Entry: `CC(C)C[C@H](N)C(=O)O`
Result block: 0.000287

* * *

# CONDITION LABEL: in ethyl acetate, 323.15 K
MEASURED PARAMETER: solubility (mole fraction)
One number for each entry.

Query block: Param item = `CC(C)C[C@H](N)C(=O)O` ; retrieve measured solubility (mole fraction).
Result block: 0.000449

* * *

# CONDITION LABEL: in n-butanol, 288.15 K
MEASURED PARAMETER: solubility (mole fraction)
Numbers only.

Query block: Returns the measured solubility (mole fraction) for the input molecule. Input: `CC(C)C[C@H](N)C(=O)O`
Result block: 2.78e-05
